Values from ChEMBL document CHEMBL4346668

System: HMEC-1
assay.explanation: Effect on VEGFR2 in HMEC1 cells assessed as total VEGFR2 level at 100 uM incubated for 24 hrs by flow cytometric analysis relative to control
Type: functional, Homo sapiens
outcome.measure: Activity (%)
Respond numerically; units are % and should not be typed.

Worked cases, answers included:
COc1ccc(Cc2cn(CCNC(=O)Nc3cccc(Br)c3)nn2)cc1	78
COc1ccc(Cc2cn(CCNC(=O)Nc3ccccc3C)nn2)cc1	100
COc1ccc(Cc2cn(CCNC(=O)Nc3cccc(Cl)c3)nn2)cc1	81
COc1ccc(Cc2cn(CCNC(=O)Nc3ccc(Cl)cc3)nn2)cc1	102
CNC(=O)c1cc(Oc2ccc(NC(=O)Nc3ccc(Cl)c(C(F)(F)F)c3)cc2)ccn1	64

Q) Find the measured Activity of COc1ccc(Cc2cn(CCNC(=O)Nc3ccc(Br)cc3)nn2)cc1 and report it.
A) 55

Q) Find the measured Activity of COc1ccc(Cc2cn(CCNC(=O)Nc3cccc(C)c3)nn2)cc1 and report it.
A) 91

Q) Find the measured Activity of COc1ccc(Cc2cn(CCNC(=O)Nc3ccc(C)cc3)nn2)cc1 and report it.
A) 90

Q) Find the measured Activity of COc1ccc(Cc2cn(CCNC(=O)Nc3ccccc3)nn2)cc1 and report it.
A) 105
